For each of the binders below, state its glycan array binding signal (z-score).
- Experimental system: Gal(b1-4)GalNAc(b1-3)[Fuc(a1-2)]Gal(b1-4)GlcNAc
- Experiment notes: glycan array binding signal (z-score within array); higher = stronger binding
- Applied conditions: glycan notation: IUPAC condensed, linker removed
The entries come from a sample that favours the strongest signals as a whole.
Answers are plain numbers.

Binder: Epa3 (Candida glabrata), Q6VBI8_CANGB (protein) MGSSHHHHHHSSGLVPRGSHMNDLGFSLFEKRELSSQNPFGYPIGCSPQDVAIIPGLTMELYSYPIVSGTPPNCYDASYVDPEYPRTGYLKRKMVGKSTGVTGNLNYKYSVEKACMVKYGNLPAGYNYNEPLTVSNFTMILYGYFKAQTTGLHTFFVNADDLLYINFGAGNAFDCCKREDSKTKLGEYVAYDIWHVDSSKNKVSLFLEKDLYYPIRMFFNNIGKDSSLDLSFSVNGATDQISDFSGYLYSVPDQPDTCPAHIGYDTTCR
glycan array binding signal (z-score): -0.192

Working through the 2 binders below one at a time, give glycan array binding signal (z-score) for each.
1. RfpC (Mycobacterium tuberculosum), O07747 (protein) MHHHHHHSSGRENLYFQGHMASKSAMAAGLVTASMSLSTAVAHAGPSPNWDAVAQCESGGNWAANTGNGKYGGLQFKPATWAAFGGVGNPAAASREQQIAVANRVLAEQGLDAWPTCGAASGLPIALWSKPAQGIKGS
2. PEB3 Cj0289c (Campylobacter jejuni), Q9PIK7 (protein) MDVNLYGPGGPHTALKDIANKYSEKTGVKVNVNFGPQATWFEKAKKDADILFGASDQSALAIASDFGKDFNVSKIKPLYFREAIILTQKGNPLKIKGLKDLANKKVRIVVPEGAGKSNTSGTGVWEDMIGRTQDIKTIQNFRNNIVAFVPNSGSARKLFAQDQADAWITWIDWSKSNPDIGTAVAIEKDLVVYRTFNVIAKEGASKETQDFIAYLSSKEAKEIFKKYGWRE

1: 3.48; 2: -0.381
